- tested_system: T1, 4H3817-bH
- T1 chain: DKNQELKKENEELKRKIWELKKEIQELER
- protocol_text: two-hybrid library CCNG1;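 note: natural log of median RNA to DNA barcode read ratio; higher means stronger binding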
measurement_kind: interaction score
Enter a number only.

Task item: Query (binder): DENQELKKKIEELEREIWELKKENQELKR [4H1804-bH] ; field requested: interaction score
Reply: -0.0504

Task item: Query (binder): DKNQELEKKIEELKRENWELEKKIQELKR [4H3414-bH] ; field requested: interaction score
Reply: 0.48

Task item: Query (binder): DENQELEKKIEELKRKNWELEKEIQELER [4H1393-bH] ; field requested: interaction score
Reply: -0.474
